Test system: HSV2 strain G
assay-name: HSV2 primary assay, strain G, HFF cells
Assay type: cell-based, herpes simplex virus 2
assay-setup: Human alphaherpesvirus 2, HFF
property: pEC50
Keep it numeric: pEC50 is minus log10 of the concentration in mol/L.

{"columns": ["compound", "value"],
 "data": [
  ["CN1CCC(Nc2cc3c4ccc(F)cc4nn3cn2)CC1", 4.30]
]}

Look up pEC50: OCC1CCC(Nc2cc3c4ccc(F)cc4nn3cn2)CC1 (centres unmarked) 4.30

###

assay-name: Cytotoxicity concurrent with EBV primary assay
assay-setup: human
property: CC50 at 72 h (µM)
Field format: number, assumed µM, no unit text.

Look up CC50 at 72 h: OCC1CCC(Nc2cc3c4ccc(F)cc4nn3cn2)CC1 (stereo not shown) 50

###

assay-name: Cytotoxicity concurrent with Adenovirus primary assay
Format: cell-based
assay-setup: human; Adenovirus primary assay, HFF cells; read-out: CC50
property: CC50 (µM)
Field format: number, assumed µM, no unit text.

Look up CC50: OCC1CCC(Nc2cc3c4ccc(F)cc4nn3cn2)CC1 (stereo not shown) [VKT-029] 50

###

measured-on: CDK9/cyclin T1 (Homo sapiens (Human))
Sequence (P50750 whole entry): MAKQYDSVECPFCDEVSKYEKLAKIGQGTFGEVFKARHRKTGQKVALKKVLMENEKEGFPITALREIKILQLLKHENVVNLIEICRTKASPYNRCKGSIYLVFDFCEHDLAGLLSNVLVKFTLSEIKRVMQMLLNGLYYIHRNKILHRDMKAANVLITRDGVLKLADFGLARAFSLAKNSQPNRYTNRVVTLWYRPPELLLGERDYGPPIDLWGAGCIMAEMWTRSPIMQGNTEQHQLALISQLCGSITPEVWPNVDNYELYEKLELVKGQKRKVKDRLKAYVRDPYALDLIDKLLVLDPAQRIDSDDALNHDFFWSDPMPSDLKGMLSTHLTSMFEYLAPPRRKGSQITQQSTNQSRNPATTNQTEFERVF
Sequence (O60563 whole entry partner): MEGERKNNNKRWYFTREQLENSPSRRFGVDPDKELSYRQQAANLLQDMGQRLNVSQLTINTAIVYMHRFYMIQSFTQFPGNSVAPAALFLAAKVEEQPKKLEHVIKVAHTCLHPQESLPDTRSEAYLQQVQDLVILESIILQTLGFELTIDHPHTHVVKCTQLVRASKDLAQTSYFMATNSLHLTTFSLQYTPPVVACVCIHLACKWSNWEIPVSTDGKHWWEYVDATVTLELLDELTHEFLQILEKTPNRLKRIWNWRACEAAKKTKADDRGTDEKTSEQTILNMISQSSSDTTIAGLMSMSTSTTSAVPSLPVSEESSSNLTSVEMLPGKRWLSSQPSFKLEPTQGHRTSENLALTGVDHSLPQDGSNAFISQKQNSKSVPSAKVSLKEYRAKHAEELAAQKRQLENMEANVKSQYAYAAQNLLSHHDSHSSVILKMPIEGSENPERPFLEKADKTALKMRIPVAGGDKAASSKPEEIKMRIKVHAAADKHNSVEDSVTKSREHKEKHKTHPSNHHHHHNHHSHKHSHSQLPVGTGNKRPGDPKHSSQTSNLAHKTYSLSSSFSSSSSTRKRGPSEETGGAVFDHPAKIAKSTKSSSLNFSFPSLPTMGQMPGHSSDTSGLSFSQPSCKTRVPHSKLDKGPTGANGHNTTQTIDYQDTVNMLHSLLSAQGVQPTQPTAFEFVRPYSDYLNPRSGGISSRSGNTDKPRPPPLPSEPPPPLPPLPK
assay-name: Kinase activity assay, CDK9/cyclin T1
Format: biochemical
assay-setup: Table 3.1.1; 10 μM ATP; 10-dose duplicate, 3-fold serial dilution starting at 10 μM; read-out: Compound IC50 CDK9/cyclin T1
property: IC50

Look up IC50: N[C@H]1CC[C@H](Nc2cc3c4ccc(F)cc4nn3cn2)CC1 [VKT-511] 46.5 nM

###

assay-name: Cytotoxicity concurrent with VZV Ellen primary assay
Type: cell-based
assay-setup: human
property: CC50
Form field: result (number plus unit)

{"columns": ["compound", "CC50"],
 "data": [
  ["NCC1CCC(Nc2cc3c4ccc(F)cc4nn3cn2)CC1 (stereo not shown)", "7.9 µM"],
  ["NC(=O)CN1CCC(Nc2cc3c4ccc(F)cc4nn3cn2)CC1", "22 µM"],
  ["CNC1CCC(Nc2cc3c4ccc(F)cc4nn3cn2)CC1 (stereo not shown)", "27.2 µM"],
  ["CN(C(=O)OC(C)(C)C)C1CCC(Nc2cc3c4ccc(F)cc4nn3cn2)CC1 (stereo not shown)", "1.48 µM"],
  ["CC(C)(C)OC(=O)N[C@H]1CCC(Nc2cc3c4ccc(F)cc4nn3cn2)C1 (stereo partly shown)", "7.6 µM"],
  ["Fc1ccc2c(c1)nn1cnc(NC3CCCOCC3)cc21 (stereo not shown)", "39.7 µM"]
]}

Look up CC50: CN1CCC(Nc2cc3c4ccc(F)cc4nn3cn2)CC1 44.7 µM

Look up CC50: Fc1ccc2c(c1)nn1cnc(NC3CCSCC3)cc21 37.1 µM

Look up CC50: O=S1(=O)CCC(Nc2cc3c4ccc(F)cc4nn3cn2)CC1 50 µM

Look up CC50: CN(C)CC1CCC(Nc2cc3c4ccc(F)cc4nn3cn2)CC1 (stereo not shown) 37.2 µM

###

Test system: HFF cells
assay-name: Cytotoxicity concurrent with HCMV AD169 primary assay
Type: cell-based, human
property: CC50 (µM)
Field format: number, assumed µM, no unit text.

Look up CC50: N[C@H]1CC[C@H](Nc2cc3c4ccc(F)cc4nn3cn2)CC1 6.98

###

assay-name: Cytotoxicity concurrent with VZV 15-6-001 primary assay
Format: cell-based
assay-setup: human, HFF cell line
property: CC50 (µM)
Field format: number, assumed µM, no unit text.

Look up CC50: OCC1CCC(Nc2cc3c4ccc(F)cc4nn3cn2)CC1 (stereo not shown) [VKT-029] 47.2
